# System: mouse neutrophils
# Method Summary: ROS inhibition in mouse neutrophils
# Format: cell-based
# Measurement Context: Neutrophil, average of several experiments
Where a name gives a salt, the structure may show the parent alone.
Measured Metric: IC50
Quote the value and follow it with the unit of measurement.

Guide cases for IC50, answers given:
>  <Compound>
CN1CCN(CCCN2c3ccccc3Sc3ccc(C(F)(F)F)cc32)CC1

>  <IC50>
2500 nM

$$$$
>  <Compound>
COc1cc(Nc2c(C#N)cnc3cc(OCCCN4CCN(C)CC4)c(OC)cc23)c(Cl)cc1Cl

>  <IC50>
150 nM

$$$$
>  <Compound>
CCCCOc1ccc(C(=O)CCN2CCCCC2)cc1

>  <IC50>
2000 nM

$$$$
>  <Compound>
CCN1CCN(Cc2ccc(Nc3ncc(F)c(-c4cc(F)c5nc(C)n(C(C)C)c5c4)n3)nc2)CC1

>  <IC50>
1500 nM

$$$$

I would be grateful if you could share the reported IC50 for CN(C)C/C=C/C(=O)Nc1cc2c(Nc3ccc(F)c(Cl)c3)ncnc2cc1O[C@H]1CCOC1 [Afatanib Maleate, Afatinib Maleate] .
2500 nM

----------
# Test system: mouse neutrophils
# Method Summary: ROS inhibition in mouse neutrophils
# Type: cell-based
# Measurement Context: concentration, average of several experiments
# Excerpt: PMA was again used to stimulate ROS production in neutrophils and the effects of the drugs were monitored at increasing concentration levels.
Where a name gives a salt, the structure may show the parent alone.
Record T whenever <90% ROS Inhibition is at 7 µM or higher; record F when lower.

# example entries with known answers
>  <Compound>
COc1cc(Nc2c(C#N)cnc3cc(OCCCN4CCN(C)CC4)c(OC)cc23)c(Cl)cc1Cl

>  <Test System>
mouse neutrophils

>  <Answer Label>
F

$$$$
>  <Compound>
CN1CCN(CCCN2c3ccccc3Sc3ccc(C(F)(F)F)cc32)CC1

>  <Test System>
mouse neutrophils

>  <Answer Label>
F

$$$$
>  <Compound>
CN(C)C/C=C/C(=O)Nc1cc2c(Nc3ccc(F)c(Cl)c3)ncnc2cc1O[C@H]1CCOC1 [Afatanib Maleate, Afatinib Maleate]

>  <Test System>
mouse neutrophils

>  <Answer Label>
T

$$$$
>  <Compound>
CCN1CCN(Cc2ccc(Nc3ncc(F)c(-c4cc(F)c5nc(C)n(C(C)C)c5c4)n3)nc2)CC1

>  <Test System>
mouse neutrophils

>  <Answer Label>
F

$$$$

Field: next compound
<90% ROS Inhibition >= 7 µM for CCCCOc1ccc(C(=O)CCN2CCCCC2)cc1 ?
F
